# assay.overview: in vitro
# measurement.setup: WNV CC50
measure.name: CC50 (µM)
Numbers only here, please. The scale is µM.

Below, 2 compounds whose answers are already recorded.
* Cc1ccc2nc(C)cc(NCc3ccccc3)c2c1 | 56.4
* COc1cccc2c(Nc3cccc([N+](=O)[O-])c3)cc(C)nc12 | 22.9

Quick note, CC50 for Cc1ccc(Nc2cc(C)nc3c2ccc2ccccc23)cc1 landed at 73

For CCCOC(=O)c1ccc(Nc2cc(C)nc3ccc(C(=O)OCC)cc23)cc1 the compound record lists CC50 as 70.1

Form: compound = Cc1cc(C)c2nc(C)cc(Nc3ccc(O)cc3)c2c1 ; CC50 = 39.3

---

CC50 values, listed per item
# assay.overview: in vitro
# measurement.setup: EBOV CC50
Dear colleague, please return just the value in µM, with no unit written.

// known answers, use as guide
* CC(=O)c1cccc(Nc2cc(C)nc3c(C)cc(C)cc23)c1 | 25.6
* Cc1cc(Nc2ccc(C)c(C)c2)c2cc(Cl)ccc2n1 | 56
* COC(=O)c1ccc(Nc2cc(C)nc3cc(Cl)ccc23)cc1 | 53.7

Per the records, this molecule ( Cc1ccc2nc3c(c(Nc4ccc(O)cc4)c2c1)CCC3 ) has CC50 equal to 34.1

Briefly, CC50 measured for CCOC(=O)c1ccc(Nc2cc(C)nc3c2ccc2ccccc23)cc1 : 72.9

The molecule identified as CCOC(=O)c1cnc2c(Cl)c(Cl)ccc2c1NCc1ccco1 registered its CC50 at 20.9

---

# Test system: WNV (WN-hRuPac cells)
# assay.overview: WNV antiviral activity, WN-hRuPac cells, Renilla luciferase
# Assay type: cell-based, West Nile virus
# measurement.setup: West Nile virus; Secondary Data; WNV; read-out: WNV EC50
Below, each of the compounds is paired with its reported EC50 value.
API: value field is a number in µM; no unit string.

• CCOC(=O)c1cnc2c(OC)cccc2c1NCC(C)O (stereo not shown) [Compound 69] = 13.7
• Cc1cc(C)c2nc(C)cc(Nc3ccc(O)cc3)c2c1 [Compound 49] = 5.58
• CCOC(=O)c1cnc2c(C)cc(C)cc2c1NCCCN(C)C [Compound 75] = 9
• CCOc1ccc2nc(C)cc(Nc3cc(Cl)ccc3OC)c2c1 [Compound 58] = 3.8
• Cc1ccc2nc(C)cc(NCc3ccccc3)c2c1 [Compound 18] = 21.3

The reported value for Cc1ccc2nc3c(c(Nc4ccccc4)c2c1)CCC3 [Compound 27] in terms of EC50 is 2.78

EC50 measured on Cc1cc(C)c2nc(C)cc(Nc3ccc(Cl)c(Cl)c3)c2c1 [Compound 53] = 20.9

So for CCc1ccccc1Nc1cc(C)nc2c(OC)cccc12 [Compound 24] , the logged EC50 turned out to be 25.6

---

# assay.overview: in vitro
# measurement.setup: DNG CC50
Documented CC50 across a set of compounds
Write down the numeric answer in µM and omit the unit.

* Cc1ccc2nc3c(c(Nc4ccc(O)cc4)c2c1)CCC3 [Compound 16] | 34.1
* Cc1cc(C)c2nc(C)cc(Nc3ccc(OCc4ccccc4)cc3)c2c1 [Compound 44] | 27.4
* COC(=O)c1ccc2nc(C)cc(Nc3cccc(O)c3)c2c1 [Compound 73] | 72.3

Reported CC50 for COC(=O)c1ccc(Nc2cc(C)nc3c(C)cccc23)cc1 [Compound 61] was 45.9

get_value(item= Cc1cc(Nc2ccc(C)c(C)c2)c2cc(Cl)ccc2n1 [Compound 47] , readout=CC50) returns 56
